Reference source: patent US12448388B2

Test system: HCT116 MTAP-deleted cell lines
Experiment: Cell viability assay (CellTiter-Glo, 7 days), HCT116 MTAP-deleted
Assay type: cell-based
Conditions: Homo sapiens, HCT-116; cell viability assay, HCT116 MTAP-deleted; class symbols; read-out: CC50
Value kind: CC50

{"Compound": "Nc1nc2cc(Cl)c(C(=O)N3CC[C@H]4C[C@@H]3c3ccc(C(F)(F)F)cc3O4)cc2n2cncc12", "CC50": "< 0.1 µM"}
{"Compound": "Nc1nc2cc(F)c(C(=O)N3CCC[C@@H]4Oc5cc(C(F)(F)F)ccc5[C@@H]43)cc2n2c(F)ncc12", "CC50": "< 0.1 µM"}
{"Compound": "CCN(C(=O)c1cc2c(cn1)nc(N)c1c(C)ncn12)[C@@H]1COc2cc(C(F)(F)F)ccc21", "CC50": "< 0.1 µM"}
{"Compound": "CN(C(=O)c1ccc2nc(N)c3cncn3c2c1)[C@@H]1COc2cc(C3CC3)ccc21", "CC50": "0.1 to 1 µM"}
{"Compound": "C[C@H]1CC2Oc3cc(C(F)(F)F)ccc3C2N(C(=O)c2cc3c(cn2)nc(N)c2cncn23)C1 (stereo partly drawn)", "CC50": "< 0.1 µM"}

Reported CC50 for Nc1nc2cc(Cl)c(C(=O)N3CCC[C@@H]4Oc5cc(C(F)(F)F)ccc5[C@@H]43)cc2n2cncc12 : what is it?
< 0.1 µM
